In this section we review reported IC50 values for a set of compounds.
Tested on: H2122
Experiment: Cell viability dose-response, H2122
Assay type: cell-based, human
Details: Homo sapiens, NCI-H2122, Tables 3 and 4; read-out: IC50 (uM) vs indicated non-small cell lung cancer cell line H2122

Sample answers from the record:
{"columns": ["ITEM_SMILES", "IC50"],
 "data": [
  ["NC(=O)c1ccc(C(=O)Nc2nc3ccccc3s2)cc1", "≥ 49.5 µM"],
  ["COc1ccc2nc(NC(=O)c3ccc(C(=O)N4CCN(C)CC4)cc3)sc2c1", "≥ 49.5 µM"]
]}

We next turn to a different compound, shown below.
**Query** Recorded IC50 for O=C(O)c1ccc(C(=O)Nc2nc3ccccc3s2)cc1 , please?
**Result** ≥ 49.5 µM

###

Tested on: H2009
Test: Cell viability dose-response, H2009
Type: cell-based, human
Conditions: Homo sapiens, NCI-H2009; 12-point dose-response starting at 50 micromolar, 3-fold increments, in duplicate; read-out: toxicity data, H2009
pIC50: −log10 of the molar value.
In this section we review reported pIC50 values for a set of compounds.

Sample answers from the record:
{"columns": ["ITEM_SMILES", "VALUE"],
 "data": [
  ["COc1ccc(CCNC(=O)NC(=O)c2ccc(C(=O)NC3CCCC3)cc2)cc1", "≤ 4.31"],
  ["COc1ccc(CCNC(=O)C(=O)Nc2ccc(C)c(C)c2)cc1", "≤ 4.30"]
]}

**Query** Recorded pIC50 for COc1ccc(CCNC(=O)NC(=O)c2ccc(OC)cc2)cc1 , please?
**Result** ≤ 4.31

###

Test system: HCC95
Test: Cell viability dose-response, HCC95
Type: cell-based
Conditions: Homo sapiens, Tables 3 and 4, read-out: IC50 (uM) vs indicated non-small cell lung cancer cell line HCC95
Mark fulfilled only when IC50 stays strictly below 40 µM. Values equal to the cut-off are not fulfilled.

// known answers, use as guide
{"columns": ["MOLECULE", "EXPERIMENTAL_TARGET", "LABEL_VALUE"],
 "data": [
  ["O=C(Nc1nc2ccccc2s1)c1ccc(-c2ccccc2)cc1 [SW001811]", "HCC95", "not fulfilled"],
  ["COc1ccc2nc(NC(=O)c3ccc(OCc4ccccc4)cc3)sc2c1 [SW202773-1]", "HCC95", "fulfilled"],
  ["NC(=O)c1c(NC(=O)c2sc3ccccc3c2Cl)sc2c1CCCCC2 [SW155113]", "HCC95", "not fulfilled"]
]}

Turning now to a further molecule:
**Query** Dear reviewer, please state whether COc1ccc2nc(NC(=O)c3ccc([N+](=O)[O-])cc3)sc2c1 [SW001282-2] has IC50 strictly beneath 40 µM.
**Result** fulfilled

###

In this section we review reported IC50 values for a set of compounds.
Tested on: HCC95
Experiment: Cell viability dose-response, HCC95
Type: cell-based
Settings: Homo sapiens, Tables 3 and 4, read-out: IC50 (uM) vs indicated non-small cell lung cancer cell line HCC95
Kindly answer with a numeric value in µM, unit omitted.

Sample answers from the record:
{"columns": ["ITEM_SMILES", "VALUE"],
 "data": [
  ["NC(=O)c1c(NC(=O)c2ccc(Br)o2)sc2c1CCCC2", 43.6],
  ["CCN(CC)c1ccc(C(=O)Nc2nc3ccc4ccccc4c3s2)cc1", 2.23]
]}

**Query** Recorded IC50 for O=C(Nc1nc2ccccc2s1)c1ccc([N+](=O)[O-])cc1 , please?
**Result** 2270
